Molecular target: human noradrenaline transporter (hNET) (Homo sapiens)
Construct: expressed in transfected cells; host or cells: COS-7 cells (ATCC), transient transfection with metafectene
Sequence (P23975 whole entry): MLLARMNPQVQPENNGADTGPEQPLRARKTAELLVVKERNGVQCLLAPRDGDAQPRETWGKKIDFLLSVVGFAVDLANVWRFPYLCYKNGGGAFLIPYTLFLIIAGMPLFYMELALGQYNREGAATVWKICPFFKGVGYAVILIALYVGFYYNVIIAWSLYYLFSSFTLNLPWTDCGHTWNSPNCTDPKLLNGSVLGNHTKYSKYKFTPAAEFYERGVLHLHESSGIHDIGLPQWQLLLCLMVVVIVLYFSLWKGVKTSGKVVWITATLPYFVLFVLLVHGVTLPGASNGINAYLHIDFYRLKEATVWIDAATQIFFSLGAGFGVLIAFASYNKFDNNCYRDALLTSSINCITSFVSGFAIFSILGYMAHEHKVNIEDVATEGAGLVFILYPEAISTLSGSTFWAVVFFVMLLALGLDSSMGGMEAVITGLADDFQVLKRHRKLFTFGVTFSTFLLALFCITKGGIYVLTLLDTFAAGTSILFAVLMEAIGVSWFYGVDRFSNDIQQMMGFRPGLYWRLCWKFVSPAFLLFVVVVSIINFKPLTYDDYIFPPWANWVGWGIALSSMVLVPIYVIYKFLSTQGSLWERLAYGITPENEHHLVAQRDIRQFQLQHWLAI
Test: biochemical
Format: binding
Conditions: Av IC50 Displacement of 3H-nisoxetine from hNET
Residues, ends and D or L forms follow the SMILES beside them.
Give measured pIC50 for each item. Keep answers brief.
// pIC50 is dimensionless: -log10 of concentration (M)

Q. Give the measured pIC50 of CC(C)C[C@@H]1NC(=O)[C@H](CCCCN)NC(=O)[C@H](Cc2ccc(O)cc2)NC(=O)CNC(=O)[C@@H]2CSSC[C@H](NC1=O)C(=O)N[C@@H](Cc1c[nH]cn1)C(=O)N1CCC[C@H]1C(=O)N[C@H](C(N)=O)CSSC[C@H](NC(=O)[C@@H](NC(=O)[C@H](CCCCN)NC(=O)[C@H](CC(N)=O)NC(=O)[C@@H](N)Cc1ccc(O)cc1)C(C)C)C(=O)N2 [compound 110] (HELM PEPTIDE1{Y.N.K.V.C.C.G.Y.K.L.C.H.P.C.[am]}$PEPTIDE1,PEPTIDE1,5:R3-14:R3|PEPTIDE1,PEPTIDE1,6:R3-11:R3$$$V2.0) .
A. 6.01

Q. Give the measured pIC50 of CC(C)C[C@@H]1NC(=O)[C@H](CCCCN)NC(=O)[C@H](Cc2ccc(O)cc2)NC(=O)CNC(=O)[C@@H]2CSSC[C@H](NC1=O)C(=O)N[C@@H](Cc1c[nH]cn1)C(=O)N1CCC[C@H]1C(=O)N[C@H](C(N)=O)CSSC[C@H](NC(=O)[C@@H](NC(=O)CNC(=O)[C@@H](N)CC(N)=O)[C@@H](C)O)C(=O)N2 [compound 138] (HELM PEPTIDE1{N.G.T.C.C.G.Y.K.L.C.H.P.C.[am]}$PEPTIDE1,PEPTIDE1,4:R3-13:R3|PEPTIDE1,PEPTIDE1,5:R3-10:R3$$$V2.0) .
A. 5.64

Q. Give the measured pIC50 of CC(C)C[C@@H]1NC(=O)[C@H](CCCCN)NC(=O)[C@H](Cc2ccc(O)cc2)NC(=O)[C@@H](CCC(=O)O)NC(=O)[C@@H]2CSSC[C@H](NC1=O)C(=O)N[C@@H](Cc1c[nH]cn1)C(=O)N1CCC[C@H]1C(=O)N[C@H](C(N)=O)CSSC[C@H](NC(=O)[C@@H](NC(=O)CNC(=O)[C@@H](N)CC(N)=O)C(C)C)C(=O)N2 .
A. 4.21

Taken from patent US7507717B2.
